experimental.target: feline FcRn (FCN-F82W3, Acrobiosystems) (feline)
measurement.notes: SPR Carterra, IgG coupled, pH 6.0
measured.parameter: pKd
Scale: negative log10 of molar concentration, which is what pKd denotes.

anti-NGF feline IgG1a, Fc variant S428H, T289H (antibody, part only; not given: anti-NGF variable domains, light chain, not shown: another chain or arm of the molecule; small tags and cut ends) Fc: PPEMLGGPSIFIFPPKPKDTLSISRTPEVTCLVVDLGPDDSDVQITWFVDNTQVYTAKHSPREEQFNSTYRVVSVLPILHQDWLKGKEFKCKVNSKSLPSPIERTISKAKGQPHEPQVYVLPPAQEELSRNKVSVTCLIKSFHPPDIAVEWEITGQPEPENNYRTTPPQLDSDGTYFVYSKLSVDRSHWQRGNTYTCSVHHEALHSHHTQKSLTQSPGK :: 6.83
anti-NGF feline IgG1a, Fc variant S252R, A378E (antibody, part only; not given: Anti-NGF variable domains, not shown: another chain or arm of the molecule; small tags and cut ends) Fc: PPEMLGGPSIFIFPPKPKDTLRISRTPEVTCLVVDLGPDDSDVQITWFVDNTQVYTAKTSPREEQFNSTYRVVSVLPILHQDWLKGKEFKCKVNSKSLPSPIERTISKAKGQPHEPQVYVLPPAQEELSRNKVSVTCLIKSFHPPDIEVEWEITGQPEPENNYRTTPPQLDSDGTYFVYSKLSVDRSHWQRGNTYTCSVSHEALHSHHTQKSLTQSPGK :: 7.45
anti-NGF feline IgG1a, Fc variant S428L (antibody, part only; not given: Anti-NGF variable domains, not shown: another chain or arm of the molecule; small tags and cut ends) Fc: PPEMLGGPSIFIFPPKPKDTLSISRTPEVTCLVVDLGPDDSDVQITWFVDNTQVYTAKTSPREEQFNSTYRVVSVLPILHQDWLKGKEFKCKVNSKSLPSPIERTISKAKGQPHEPQVYVLPPAQEELSRNKVSVTCLIKSFHPPDIAVEWEITGQPEPENNYRTTPPQLDSDGTYFVYSKLSVDRSHWQRGNTYTCSVLHEALHSHHTQKSLTQSPGK :: 7.78
anti-NGF feline IgG1a, Fc variant S428Y, S254R (antibody, part only; not given: Anti-NGF variable domains, not shown: another chain or arm of the molecule; small tags and cut ends) Fc: PPEMLGGPSIFIFPPKPKDTLSIRRTPEVTCLVVDLGPDDSDVQITWFVDNTQVYTAKTSPREEQFNSTYRVVSVLPILHQDWLKGKEFKCKVNSKSLPSPIERTISKAKGQPHEPQVYVLPPAQEELSRNKVSVTCLIKSFHPPDIAVEWEITGQPEPENNYRTTPPQLDSDGTYFVYSKLSVDRSHWQRGNTYTCSVYHEALHSHHTQKSLTQSPGK :: 7.32

Query block: Name the reported pKd value associated with the binder anti-NGF feline IgG1a, Fc variant S428Y, L309V (antibody, part only; not given: Anti-NGF variable domains, not shown: another chain or arm of the molecule; small tags and cut ends) Fc: PPEMLGGPSIFIFPPKPKDTLSISRTPEVTCLVVDLGPDDSDVQITWFVDNTQVYTAKTSPREEQFNSTYRVVSVLPIVHQDWLKGKEFKCKVNSKSLPSPIERTISKAKGQPHEPQVYVLPPAQEELSRNKVSVTCLIKSFHPPDIAVEWEITGQPEPENNYRTTPPQLDSDGTYFVYSKLSVDRSHWQRGNTYTCSVYHEALHSHHTQKSLTQSPGK
Result block: 7.88
